Molecular target: ACC2 (Homo sapiens (Human), UniProt O00763)
Sequence (O00763 whole entry, species assumed): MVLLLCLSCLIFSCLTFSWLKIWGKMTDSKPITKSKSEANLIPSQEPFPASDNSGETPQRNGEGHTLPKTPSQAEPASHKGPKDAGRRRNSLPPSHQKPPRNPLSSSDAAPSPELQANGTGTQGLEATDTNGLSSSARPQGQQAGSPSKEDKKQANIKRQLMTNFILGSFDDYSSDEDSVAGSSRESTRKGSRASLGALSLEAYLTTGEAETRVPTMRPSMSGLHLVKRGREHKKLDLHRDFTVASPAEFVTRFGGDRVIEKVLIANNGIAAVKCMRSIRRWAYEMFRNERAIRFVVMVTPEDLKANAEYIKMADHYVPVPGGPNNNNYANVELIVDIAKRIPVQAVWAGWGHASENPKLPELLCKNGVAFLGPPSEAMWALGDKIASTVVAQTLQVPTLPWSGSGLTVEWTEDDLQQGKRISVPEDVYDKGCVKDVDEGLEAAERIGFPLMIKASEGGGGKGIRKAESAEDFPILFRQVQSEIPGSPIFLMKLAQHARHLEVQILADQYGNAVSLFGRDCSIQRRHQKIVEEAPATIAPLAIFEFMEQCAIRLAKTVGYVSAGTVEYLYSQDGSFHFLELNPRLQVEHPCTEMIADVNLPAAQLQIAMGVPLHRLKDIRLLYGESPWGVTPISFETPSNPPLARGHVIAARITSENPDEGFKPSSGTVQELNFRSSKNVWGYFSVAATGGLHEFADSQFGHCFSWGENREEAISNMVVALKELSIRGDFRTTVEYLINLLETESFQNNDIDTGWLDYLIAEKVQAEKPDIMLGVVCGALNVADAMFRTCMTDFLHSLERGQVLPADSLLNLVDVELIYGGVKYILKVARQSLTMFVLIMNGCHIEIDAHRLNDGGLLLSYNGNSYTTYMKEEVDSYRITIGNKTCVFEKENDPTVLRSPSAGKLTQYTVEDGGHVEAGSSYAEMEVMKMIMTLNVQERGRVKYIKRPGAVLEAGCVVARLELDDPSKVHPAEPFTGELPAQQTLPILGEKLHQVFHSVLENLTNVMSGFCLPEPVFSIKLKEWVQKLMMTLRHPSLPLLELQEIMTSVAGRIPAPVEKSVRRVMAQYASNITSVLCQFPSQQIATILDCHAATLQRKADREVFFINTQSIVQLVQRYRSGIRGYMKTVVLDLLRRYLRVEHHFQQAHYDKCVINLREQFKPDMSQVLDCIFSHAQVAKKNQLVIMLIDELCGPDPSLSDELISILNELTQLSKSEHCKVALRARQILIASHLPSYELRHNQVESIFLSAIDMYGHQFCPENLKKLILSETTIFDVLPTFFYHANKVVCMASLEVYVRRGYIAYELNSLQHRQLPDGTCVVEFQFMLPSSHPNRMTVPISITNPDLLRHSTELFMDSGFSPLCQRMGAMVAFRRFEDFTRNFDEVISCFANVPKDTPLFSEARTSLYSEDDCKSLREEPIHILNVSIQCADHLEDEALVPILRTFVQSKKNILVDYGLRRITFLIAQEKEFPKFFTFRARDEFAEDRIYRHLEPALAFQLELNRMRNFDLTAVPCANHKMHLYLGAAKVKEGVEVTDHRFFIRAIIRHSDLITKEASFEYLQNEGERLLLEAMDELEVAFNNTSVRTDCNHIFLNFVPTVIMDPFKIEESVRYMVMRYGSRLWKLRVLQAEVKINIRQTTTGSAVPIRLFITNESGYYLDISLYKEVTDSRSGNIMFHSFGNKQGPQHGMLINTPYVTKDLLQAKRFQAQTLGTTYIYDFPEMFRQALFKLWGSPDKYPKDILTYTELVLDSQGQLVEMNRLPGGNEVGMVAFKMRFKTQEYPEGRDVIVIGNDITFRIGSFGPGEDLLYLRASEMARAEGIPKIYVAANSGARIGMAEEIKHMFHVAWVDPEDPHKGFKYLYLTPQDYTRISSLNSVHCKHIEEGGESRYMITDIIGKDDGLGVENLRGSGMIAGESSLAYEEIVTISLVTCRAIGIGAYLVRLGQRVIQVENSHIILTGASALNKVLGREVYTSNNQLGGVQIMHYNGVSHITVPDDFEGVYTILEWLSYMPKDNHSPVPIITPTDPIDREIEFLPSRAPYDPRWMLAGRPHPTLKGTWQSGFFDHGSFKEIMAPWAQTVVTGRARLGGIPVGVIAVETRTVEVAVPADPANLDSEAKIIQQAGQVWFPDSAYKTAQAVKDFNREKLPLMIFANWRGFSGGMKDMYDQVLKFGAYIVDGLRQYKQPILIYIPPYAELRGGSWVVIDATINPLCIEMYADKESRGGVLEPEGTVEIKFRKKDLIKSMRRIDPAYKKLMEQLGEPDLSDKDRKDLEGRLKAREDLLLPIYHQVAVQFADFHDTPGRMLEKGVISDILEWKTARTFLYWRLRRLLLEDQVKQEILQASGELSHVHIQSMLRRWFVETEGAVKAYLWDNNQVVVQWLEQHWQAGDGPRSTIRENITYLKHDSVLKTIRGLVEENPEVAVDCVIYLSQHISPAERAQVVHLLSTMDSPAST
Test: In vitro ACC inhibition assay (ADP-Glo), ACC2
Assay type: biochemical
Details: 5 nM ACC2, 20 μM ATP, 20 μM acetyl-CoA; read-out: IC50 (μM) ACC2
quantity-measured: IC50

>>> test_value("COc1ccccc1C(Cn1c(=O)n(C2(C(N)=O)CCCC2)c(=O)c2c(C)c(-c3ncco3)sc21)OC1CCOCC1 (stereo not shown) [Example 43]")
"< 0.01 µM"
>>> test_value("COc1ccccc1[C@H](Cn1c(=O)n(C2(C(=O)O)CC2)c(=O)c2c(C)c(-n3cccn3)sc21)OC1CCOCC1 [Example 45]")
"< 0.01 µM"
>>> test_value("CNC(=O)CC1(n2c(=O)c3c(C)c(Br)sc3n(C[C@H](OC3CCOCC3)c3ccccc3OC)c2=O)CC1 [Example 62]")
"0.01 to 0.1 µM"
>>> test_value("COc1ccccc1C(Cn1c(=O)n(C2(C(=O)O)CCCC2)c(=O)c2c(C)c(-c3ncco3)sc21)OC1CCOCC1 (stereo not shown) [Example 25]")
"< 0.01 µM"
